Recorded IC50 values (Concanavalin-A (Canavalia ensiformis)) are given below.
Kindly provide the numeric value in µM only, without the unit symbol.

>  <COMPOUND>
O=C(O)C1CCCCC1c1c2ccc(=O)c(O)c-2oc2c(O)c(O)ccc12 (stereo unspecified)

>  <MEASURED ENDPOINT>
IC50

>  <READOUT VALUE>
29

$$$$
>  <COMPOUND>
NNS(=O)(=O)c1cc(C(=O)O)cc(C(=O)O)c1

>  <MEASURED ENDPOINT>
IC50

>  <READOUT VALUE>
19

$$$$
>  <COMPOUND>
NS(=O)(=O)c1ccc(/N=N/c2cccnc2O)cc1

>  <MEASURED ENDPOINT>
IC50

>  <READOUT VALUE>
234

$$$$
>  <COMPOUND>
NS(=O)(=O)c1ccc(/N=N/c2nc3nc(O)nc(O)c3[nH]2)cc1

>  <MEASURED ENDPOINT>
IC50

>  <READOUT VALUE>
615

$$$$
>  <COMPOUND>
CO[C@H]1O[C@H](CO)[C@@H](O)[C@H](O)[C@@H]1O

>  <MEASURED ENDPOINT>
IC50

>  <READOUT VALUE>
350

$$$$

// switching to the query compound
Test item Oc1cc(O)c2c(c1)OC(c1ccc(O)c(O)c1)C(O)C2c1c(O)cc(O)c2c1CC(c1ccc(O)c(O)c1)C(O)C2 (stereo unspecified) ; Concanavalin-A (Canavalia ensiformis); reported IC50 was 479
